- procedure-text: Metabolic stability in extensive metabolizer human liver microsomes with and without quinidine
- Type: in vitro ADME
- conditions-used: human, pH 7.4, with quinidine 0.1 µM; quinidine 0.1 μM; EM HLM
Parameter CLint scaled at 100 ng/mL: see the listing below.

{"columns": ["molecule", "unit-abbreviation", "CLint scaled at 100 ng/mL"],
 "data": [
  ["COc1ccc2c(c1)[C@]13CCCC[C@@H]1[C@H](C2)N(C)CC3", "L/h/kg", 0.444],
  ["[2H]C([2H])([2H])c1ccc2c(c1)[C@]13CCCC[C@@H]1[C@H](C2)N(C([2H])([2H])[2H])CC3", "L/h/kg", 0.6],
  ["Cc1ccc2c(c1)[C@]13CCCC[C@@H]1[C@H](C2)N(C)CC3 [Dimemorfan, (+)-(9α,13α,14α)-3,17-dimethylmorphinan]", "L/h/kg", 0.732]
]}

----------
Below, each entry is listed with its recorded CLint scaled at 100 ng/mL.
- procedure-text: Metabolic stability in extensive metabolizer human liver microsomes with and without quinidine
- Assay type: in vitro ADME
- conditions-used: human, pH 7.4, with none (quinidine 0 µM, control); quinidine 0 μM; EM HLM

{"columns": ["molecule", "CLint scaled at 100 ng/mL / mL/min/kg"],
 "data": [
  ["COc1ccc2c(c1)[C@]13CCCC[C@@H]1[C@H](C2)N(C)CC3", 15.4],
  ["[2H]C([2H])([2H])c1ccc2c(c1)[C@]13CCCC[C@@H]1[C@H](C2)N(C([2H])([2H])[2H])CC3", 48.2],
  ["Cc1ccc2c(c1)[C@]13CCCC[C@@H]1[C@H](C2)N(C)CC3 [Dimemorfan, (+)-(9α,13α,14α)-3,17-dimethylmorphinan]", 64.9]
]}
